# method description: Metabolic stability in mouse liver microsomes assessed as parent compound recovery after 30 mins in presence of NADPH regenerating system by LC-MS/MS analysis
# Format: ADME, Microsome
# condition summary: read-out: Drug recovery
quantity name: remaining at 0.5 h (%)
Could you give me the number in %? Just the number is fine.

Return value of remaining at 0.5 h for input O=C(O)c1cc(O)c(=O)c2c(O)c(O)c(Br)cc2c1 , no commentary.
100
